Molecular target: serotonin 5-HT2C receptor (Rattus norvegicus)
Sequence (P08909 33-460): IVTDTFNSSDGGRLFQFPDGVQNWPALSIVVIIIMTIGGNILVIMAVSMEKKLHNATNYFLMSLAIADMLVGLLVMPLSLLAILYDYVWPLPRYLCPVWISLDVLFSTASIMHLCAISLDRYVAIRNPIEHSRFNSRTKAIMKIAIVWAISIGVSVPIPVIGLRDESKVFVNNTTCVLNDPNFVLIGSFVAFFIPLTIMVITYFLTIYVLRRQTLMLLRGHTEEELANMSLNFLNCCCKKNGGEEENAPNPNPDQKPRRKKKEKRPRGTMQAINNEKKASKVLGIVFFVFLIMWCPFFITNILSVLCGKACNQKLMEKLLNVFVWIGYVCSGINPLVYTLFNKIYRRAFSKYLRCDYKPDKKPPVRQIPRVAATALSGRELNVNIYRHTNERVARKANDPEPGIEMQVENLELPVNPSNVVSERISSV
pKi: −log10 of the molar value.
Quick list: pKi per entry.

sample smiles	pKi
Fc1ccc2c(C3CCN(CCCSc4nnc(-c5cccc6ccccc56)o4)CC3)noc2c1	6.07
Fc1ccc2c(C3CCN(CCCSc4nnc(-c5ccc(Cl)cc5)o4)CC3)noc2c1	6.30
